test system: UACC-257 melanoma; assay: NCI tumour cell line growth inhibition, 48 h
Measured attribute: TGI

• O=c1c2cc3c(cc2[nH]c2ncccc12)OCO3 = > 10 µM
• C[C@H]1[C@H](C)CC[C@]2(C(=O)NCCNCCN)CC[C@]3(C)C(=CC[C@@H]4[C@@]5(C)CCC(=O)C(C)(C)[C@@H]5CC[C@]43C)[C@H]12 = 3.89 µM
• CCCCCCCCCCCCCC(=O)OCC1OC(=O)CC1O (stereo not given) = > 100 µM
• Cc1nn(C(=O)Cc2ccccc2)c2c1C(c1ccc(O)cc1)SC(N)=N2 (stereo not given) = > 100 µM

Now consider the entry below.
[Q] Find the measured TGI of `CC(=O)NNc1nc(C)c(C(=O)NNC(=O)C(=O)Nc2nc3ccc([N+](=O)[O-])cc3s2)s1` and report it.
[A] > 100 µM
